# Tested on: Saccharomyces cerevisiae
# protocol.summary: protein stability index of tFT-peptide fusion (C-terminal peptide) (PSI (0-1 scale)); higher = more stable (slower turnover)
# setup.conditions: genetic background: wild type; temperature: 30 C

sequence.data: GGGVGVPDSASE
subject.of.test: Saccharomyces cerevisiae
protein stability index: 0.681
--
sequence.data: TPPLCAPPLPPP
subject.of.test: Saccharomyces cerevisiae
protein stability index: 0.702
--
sequence.data: PPPRRPPPRLLS
subject.of.test: Saccharomyces cerevisiae
protein stability index: 0.705
--
sequence.data: VGGAAVVAGGGV
subject.of.test: Saccharomyces cerevisiae
protein stability index: 0.695
--
sequence.data: RVWAGGGGGDGC
subject.of.test: Saccharomyces cerevisiae
protein stability index: 0.691
--
sequence.data: SGVSCPGRVDGG
subject.of.test: Saccharomyces cerevisiae
protein stability index: 0.68

###

# Test system: Saccharomyces cerevisiae
# protocol.summary: protein stability index of tFT-peptide fusion (C-terminal peptide) (PSI (0-1 scale)); higher = more stable (slower turnover)
# setup.conditions: genetic background: wild type; temperature: 30 C
Listed sequences paired with reported protein stability index

sequence.data: CVCLWCFLVWAR
protein stability index: 0.246
--
sequence.data: PPQDQAPVGVND
protein stability index: 0.644
--
sequence.data: FCICRFLFIFLG
protein stability index: 0.294
--
sequence.data: ELDVRPMVFLVA
protein stability index: 0.337
--
sequence.data: LSRRFSLALFWT
protein stability index: 0.197
--
sequence.data: VYQAFIFRMSLF
protein stability index: 0.159
--
sequence.data: FLSLVIVLRWFL
protein stability index: 0.242
--
sequence.data: LLSFYFVLAYMV
protein stability index: 0.179

###

# Test system: Saccharomyces cerevisiae
# protocol.summary: protein stability index of tFT-peptide fusion in deletion strain of DAS1 (PSI (0-1 scale)); higher = more stable (slower turnover)
# cutoff 0.7 applies to protein stability index; >= gives fulfilled, < gives not fulfilled

sequence.data: LKILRQKMNHQNC
subject.of.test: Saccharomyces cerevisiae
group.label: not fulfilled

sequence.data: ETSCGYKFRTNN
subject.of.test: Saccharomyces cerevisiae
group.label: not fulfilled

sequence.data: FSMRWTFRYWVF
subject.of.test: Saccharomyces cerevisiae
group.label: not fulfilled

sequence.data: LKILRDKMNHQN
subject.of.test: Saccharomyces cerevisiae
group.label: not fulfilled

sequence.data: RLIQPLPVQILN
subject.of.test: Saccharomyces cerevisiae
group.label: fulfilled

sequence.data: KKHKKGQKQNIN
subject.of.test: Saccharomyces cerevisiae
group.label: not fulfilled

###

# Test system: Saccharomyces cerevisiae
# protocol.summary: protein stability index of tFT-peptide fusion (C-terminal peptide) (PSI (0-1 scale)); higher = more stable (slower turnover)
# setup.conditions: genetic background: cdc34-1; temperature: 37 C

sequence.data: TVRVWPRNLWFS
protein stability index: 0.519
--
sequence.data: SWMFKLCIQWNV
protein stability index: 0.515
--
sequence.data: GFVSLFRLFIRL
protein stability index: 0.241
--
sequence.data: VCSCLVLVFCCC
protein stability index: 0.232
--
sequence.data: PLRKYLRHLLSL
protein stability index: 0.598
--
sequence.data: PHPPRPPCPPIL
protein stability index: 0.673
--
sequence.data: REGDLLKFKMRP
protein stability index: 0.685
--
sequence.data: VVRYGGVIAFRG
protein stability index: 0.841
--
sequence.data: DFFTSFSLFFFL
protein stability index: 0.674
--
sequence.data: FCSPFFFFLFRL
protein stability index: 0.283
--
sequence.data: FFVEKRVFFGII
protein stability index: 0.604
--
sequence.data: LCYVLLWLLCRS
protein stability index: 0.45
--
sequence.data: RDASLLFHFFVC
protein stability index: 0.507
--
sequence.data: FLLYRFSLVGCF
protein stability index: 0.0567
--
sequence.data: LRCRAATSRTVS
protein stability index: 0.69
--
sequence.data: LPILFPAALRLY
protein stability index: 0.552
--
sequence.data: GPHATYLYLVLA
protein stability index: 0.199
--
sequence.data: LGRLDYKRMKRA
protein stability index: 0.746
--
sequence.data: SYFASLLDLFTA
protein stability index: 0.727
--
sequence.data: IQICLNRLRLFH
protein stability index: 0.654
--
sequence.data: PHFDLLLCLSLN
protein stability index: 0.625
--
sequence.data: CWYVCSFWPYVV
protein stability index: 0.366
--
sequence.data: DLIGSVRRLFCV
protein stability index: 0.651
--
sequence.data: YFFVCYFSLLVF
protein stability index: 0.0832
--
sequence.data: LVFAFFLLSFFI
protein stability index: 0.478
--
sequence.data: IRLCAASFMVVF
protein stability index: 0.501
--
sequence.data: RVFGWIEVEVEG
protein stability index: 0.518
--
sequence.data: HHACLLPVRKAG
protein stability index: 0.636
--
sequence.data: YVSSFSLVVLLS
protein stability index: 0.425
--
sequence.data: DVPLFLPLPVSV
protein stability index: 0.357
--
sequence.data: VCLRICLVTLMM
protein stability index: 0.3
--
sequence.data: VYWRGLHLQRLL
protein stability index: 0.681
--
sequence.data: FFPSFGLFLCPV
protein stability index: 0.431
--
sequence.data: VRFLLSLCCALL
protein stability index: 0.588
--
sequence.data: FGPVLLVSFLFS
protein stability index: 0.273
--
sequence.data: SISVQCSMLRVL
protein stability index: 0.456
--
sequence.data: RVLCLVSSLTLF
protein stability index: 0.549
--
sequence.data: VVRAVLCVCASV
protein stability index: 0.458
--
sequence.data: AQCRGGGLSGVG
protein stability index: 0.572
--
sequence.data: WLWFVGCLAAPL
protein stability index: 0.63
--
sequence.data: AGAFRIVWWALR
protein stability index: 0.652
--
sequence.data: FLWAVSLCRSLV
protein stability index: 0.607
--
sequence.data: YVLLDFFFFFLV
protein stability index: 0.216
--
sequence.data: ASWRYMFPVTLG
protein stability index: 0.576
--
sequence.data: LCLICLFLLKVL
protein stability index: 0.477
--
sequence.data: ELDVRPMVFLVA
protein stability index: 0.419
--
sequence.data: LPPPYSPRLFHN
protein stability index: 0.552
--
sequence.data: AFLWSLFVFFRF
protein stability index: 0.254
--
sequence.data: SFVLLSSFLVFV
protein stability index: 0.249
--
sequence.data: RRVRVVCVIVAA
protein stability index: 0.286
--
sequence.data: WSWCLDVVCFTS
protein stability index: 0.498
--
sequence.data: WFFRCLFLLSLF
protein stability index: 0.457
--
sequence.data: MWFFFICYFLSV
protein stability index: 0.277
--
sequence.data: FYFMGFFFGLGM
protein stability index: 0.589
--
sequence.data: LFFRLLCAFLFL
protein stability index: 0.532
--
sequence.data: TVRLPLILPCVL
protein stability index: 0.575
--
sequence.data: VFSFLYHVVPVL
protein stability index: 0.437
--
sequence.data: CFVRCFVSIRLF
protein stability index: 0.109
--
sequence.data: LCGGEWVVWVKG
protein stability index: 0.645
--
sequence.data: GGRWRRRGFFFS
protein stability index: 0.697
--
sequence.data: GFLWFCGVPVGW
protein stability index: 0.695
--
sequence.data: PFPRCRLIFFFM
protein stability index: 0.517
--
sequence.data: LFLVLFCVVGFV
protein stability index: 0.234
--
sequence.data: YSMLGKLVRLVT
protein stability index: 0.553
--
sequence.data: FGALVVCFLTRC
protein stability index: 0.426
--
sequence.data: WQILVRLIDFYT
protein stability index: 0.453
--
sequence.data: SVPCWVFLFCLA
protein stability index: 0.349
--
sequence.data: VVFLFVEAVVGV
protein stability index: 0.0536
--
sequence.data: RKWLFFRSWRYV
protein stability index: 0.476
--
sequence.data: NFCVLLQFCVLV
protein stability index: 0.437
--
sequence.data: PHLDLYRLSALI
protein stability index: 0.705
